# EXPERIMENTAL_SYSTEM: Voltage-gated potassium channel subunit beta-2 (Rattus norvegicus)
# PROCEDURE_TEXT: enhancers of rat Kvbeta2 NADPH turnover – biochemical, NADPH fluorescence, primary screen (AID 623);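 also: fluorescence intensity change per second fitted from 20 to 320 s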
# MEASUREMENT_SETUP: Recombinant KvBeta, NADPH fluorescence decrease slope, 10 min; at 10 µM; hits give low values
Recorded measurements of NADPH fluorescence slope, one per entry
I only need the number, thanks.

Known results for molecules:
INSERT INTO assay_data (molecule, readout_value) VALUES
  ('O=C(COc1ccc(Cl)cc1)Nc1nc(-c2cccs2)cs1', '2.5e-05'),
  ('Cc1cc(C)n(C(C)n2nc(C)cc2C)n1', '-6.5e-05'),
  ('Cc1nc2ncnn2c(N2CCC(C(=O)NCC3CCCO3)CC2)c1Cc1ccccc1 (stereo not given)', '-2.8e-05'),
  ('c1ccc(N=P(c2nc3ccccc3o2)(N2CCOCC2)N2CCOCC2)cc1', '-1.9e-05'),
  ('CCOCC(=O)Nc1ccc(S(=O)(=O)N2CCOCC2)cc1', '5.9e-06');

Query: Give recorded NADPH fluorescence slope. COc1ccccc1C1/C(=C(/O)c2ccccc2)C(=O)C(=O)N1CC(C)C (stereo not given)
Response: -2.2e-05

Query: Using known records, supply NADPH fluorescence slope for C=CCn1c(Cc2csc(N)n2)nnc1SCC(=O)OCC
Response: -2.5e-05

Query: // Input: O=C(c1csc2ccccc12)N1CCCCCC1 . Output its NADPH fluorescence slope only.
Response: 8.9e-06

Query: Give me measured NADPH fluorescence slope, please, for this molecule: O=C(Nc1ccc2[nH]c3c(c2c1)CCCC3)c1ccco1
Response: -4.7e-05

Query: Consider the molecule Cc1cccc(C)c1NC(=O)N1CCN(C2CCCCC2)CC1 and give its recorded NADPH fluorescence slope.
Response: -3.9e-05

Query: Using known records, supply NADPH fluorescence slope for CCOC(=O)C1CCN(S(=O)(=O)c2cc(Cl)c(C)cc2OC)CC1
Response: 1.4e-05

Query: Recall and state the measured NADPH fluorescence slope for Cc1ccc(C2c3c(oc4ccccc4c3=O)C(=O)N2c2nnc(C(C)C)s2)o1 (stereo not given) .
Response: -5.6e-05

Query: # return recorded NADPH fluorescence slope for input O=C(CSc1ccccc1C(=O)NCCCN1CCCC1=O)NCc1ccco1
Response: -4.3e-05

Query: State its NADPH fluorescence slope for this molecule: COc1ccc(NC(=O)C23CCC(C)(C(=O)C2)C3(C)C)cc1 (stereo not given)
Response: 6.7e-07

Query: In one line, give reported NADPH fluorescence slope of the entry COc1ccc(-n2cnnc2SCCC#N)cc1 .
Response: -2.7e-05

Query: Retrieve NADPH fluorescence slope measured for O=c1nc(N2CCCC2)nc(Nc2ccccc2)[nH]1 and print it.
Response: -4e-05

Query: Return the recorded NADPH fluorescence slope value; entry: c1ccc(OCCCn2nnc(-c3ccncc3)n2)cc1
Response: -2.7e-05

Query: Give recorded NADPH fluorescence slope. Cc1ccc(CC2SC(=O)NC2=O)cc1Cl (stereo not given)
Response: -5.4e-05

Query: Give reported NADPH fluorescence slope value for CCCC(=O)Nc1ccc(NC(=O)c2cccs2)cn1
Response: -3.4e-05

Query: Supply NADPH fluorescence slope value. Item: Cc1ccc(C)c(-n2nnnc2SCC(=O)NCCC2=CCCCC2)c1
Response: -5.4e-05
